// reported koff for each item listed
study_target: T1, human CD47 (analyte in the Biacore assay) (human, UniProt Q08722 19-139, limits assumed)
T1 construct: also called human CD47 protein
protocol_notes: SPR (Biacore T200), antibody captured by anti-mouse Fc, human CD47 as analyte
Write the number in s⁻¹ without appending the unit.

// solved cases for koff follow
1) 059-1.11.1 (antibody, mouse IgM, V domains shown, Mouse hybridoma antibody; the subclass paragraph gives the light chain type as kappa; also called 059-1.11.1 purified antibody) VH: QVQLQQSGAELVRPGASVTLSCKASGYTFTDYEMHWVKQTPVHGLEWIGAIDPETGGTAYNQKFKGKATLTADKSSSTAYMELRSLTSEDSAVYYCTRGTPYAMDYWGQGTSVTVSS VL: DVVMTQTPLSLPVSLGDQASISCRSSQSLVHSNGNTYLHWYLQKPGQSPKLLIYKVSNRFSGVPERFSGSGSGTDFTLKISRVEAEDLGVYFCSQSTHVPWTFGGGTKLEIK
0.00402
2) 059-1.43.1 (antibody, mouse IgG1, V domains shown, also called 059-1.43.1 purified antibody) VH: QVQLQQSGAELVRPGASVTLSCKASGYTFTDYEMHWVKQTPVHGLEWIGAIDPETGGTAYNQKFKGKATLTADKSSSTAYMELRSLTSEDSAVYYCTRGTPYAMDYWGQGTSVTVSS VL: DVVMTQTPLSLPVSLGDQASISCRSSQSLVHSNGNTYLHWYLQKPGQSPKLLIYKVSNRFSGVPDRFSGSGSGTDFTLKISRVEAEDLGVYFCSQSTHVPWTFGGGTKLEIK
0.00666
3) 059-1.82.1 (antibody, mouse IgG3, V domains shown) VH: EVQLQQSGPELVKPGASVKMSCKASGYTFTNYVMHWVKQKPGQGLEWIGYINPYNDGTNYNEKFKGKATLTSDKSSSTAYMELSSLTSEDSAVYYCAKGGWFSMDYWGQGTSVTVSS VL: DVVMTQTPLSLPVSLGDQASISCRSSQSLVHSNGKTYLQWYLQKPGQSPKLLIYKVSNRFSGVPDRFSGSGSGTDFTLKISRVEAEDLGVYFCSQSTHVYTFGGGTKLEIK
0.00364

Entry under test: 059-1.100.5 (antibody, mouse IgM, V domains shown, Mouse hybridoma antibody; light chain type kappa; also called 059-1.100.5 purified antibody) VH: QVQLQQSGAELVRPGASVTLSCKASGYTFTDYEMHWVKQTPVHGLEWIGAIDPETGGTAYNQNFKGKATLTADKSSSTAYMELRSLTSEDSAVYYCTRGTPYAMDYWGQGTSVTVSS VL: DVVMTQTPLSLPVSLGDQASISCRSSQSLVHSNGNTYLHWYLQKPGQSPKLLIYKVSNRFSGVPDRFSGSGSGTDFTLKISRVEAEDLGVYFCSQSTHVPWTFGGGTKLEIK . Its koff was 0.0069
